This section presents binders with their documented OD450 nm values.
biological target: his-labeled human IL-13 (immunogen A) (human) (UniProt P35225); experiment: ELISA, biotin-immunogen A; antibody at 0.53 nM

{"columns": ["BINDER", "PARAMETER MEASURED", "VALUE"],
 "data": [
  ["c28A2E11 (mouse-human chimeric IL-13 antibody) (antibody, V domains shown) VH: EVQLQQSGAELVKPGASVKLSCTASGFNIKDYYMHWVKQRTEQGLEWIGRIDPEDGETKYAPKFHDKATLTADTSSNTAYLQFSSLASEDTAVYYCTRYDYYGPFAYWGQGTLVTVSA VL: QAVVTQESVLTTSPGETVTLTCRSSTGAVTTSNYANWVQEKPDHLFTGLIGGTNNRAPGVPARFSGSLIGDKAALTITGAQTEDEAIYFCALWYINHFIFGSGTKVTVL", "OD450 nm", 1.93],
  ["28A2E11 (lead antibody, mouse hybridoma) (antibody, V domains shown, Mouse monoclonal antibody purified from hybridoma supernatant on Protein G) VH: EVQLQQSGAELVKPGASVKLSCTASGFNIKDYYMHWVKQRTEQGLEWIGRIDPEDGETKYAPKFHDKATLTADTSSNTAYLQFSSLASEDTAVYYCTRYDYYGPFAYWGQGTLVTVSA VL: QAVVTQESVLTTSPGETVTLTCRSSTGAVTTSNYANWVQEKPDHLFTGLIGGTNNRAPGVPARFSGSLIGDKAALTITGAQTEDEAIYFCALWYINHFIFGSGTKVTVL", "OD450 nm", 1.32],
  ["35E2C3 (lead antibody, mouse hybridoma) (antibody, V domains shown, Mouse monoclonal antibody purified from hybridoma supernatant on Protein G) VH: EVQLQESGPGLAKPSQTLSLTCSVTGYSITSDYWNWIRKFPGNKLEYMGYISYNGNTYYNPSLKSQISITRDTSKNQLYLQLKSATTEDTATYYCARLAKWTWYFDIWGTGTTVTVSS VL: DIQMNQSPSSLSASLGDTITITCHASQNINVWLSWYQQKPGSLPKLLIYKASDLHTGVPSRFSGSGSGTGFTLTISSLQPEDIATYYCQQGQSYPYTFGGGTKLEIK", "OD450 nm", 0.91]
]}

Now for a further binder.
Input line: What value of OD450 nm has been recorded for this entry: 29D9H8 (lead antibody, mouse hybridoma) (antibody, V domains shown, Mouse monoclonal antibody purified from hybridoma supernatant on Protein G) VH: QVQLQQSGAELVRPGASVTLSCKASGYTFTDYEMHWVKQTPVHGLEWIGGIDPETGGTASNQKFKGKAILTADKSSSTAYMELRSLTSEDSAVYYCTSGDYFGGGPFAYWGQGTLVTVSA VL: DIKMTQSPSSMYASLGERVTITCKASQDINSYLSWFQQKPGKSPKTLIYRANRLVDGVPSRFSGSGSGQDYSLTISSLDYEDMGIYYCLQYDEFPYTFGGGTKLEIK
Output line: 1.4
